Test system: SF-268 CNS
ASSAY_INFO: NCI-60 one-dose screen, 48 h
PARTICULARS: 10 µM unless noted
The panel holds about 83,000 compounds, 20% with a hit somewhere; the sample as a whole holds those more often. Calls of active or inactive are those of the source. The calls were made as follows: active = growth percent below 10; inactive = the rest.
Outcomes: active, inactive

COMPOUND	TARGET	LABEL_CLASS
CSCC[C@@H]1C(=O)N(C)[C@H](C(C)(C)C)N1C(=O)c1ccccc1	SF-268 CNS	inactive
Cc1ccc(NC(=O)c2ccccc2Cl)cc1	SF-268 CNS	inactive
COC1OC(C(COC(C)=O)OC(C)=O)C(OC(C)=O)C(OC(C)=O)C1OC(C)=O (stereo not drawn)	SF-268 CNS	inactive
CC1CCC(C)(C)c2ccccc21 (stereo not drawn)	SF-268 CNS	inactive
N#Cc1ccc(OC(=O)Nc2c(Cl)cc(Cl)cc2Cl)cc1	SF-268 CNS	inactive
CC(C)=CCC[C@@H](C)[C@H]1CC[C@@]2(C)C3=C(CC[C@]12C)[C@@]1(C)CC[C@H](O)C(C)(C)[C@@H]1CC3	SF-268 CNS	inactive
CC(=O)c1cccs1	SF-268 CNS	inactive
CCCCNc1ccc(-c2ccc(NCCCC)cc2)cc1	SF-268 CNS	inactive
C=C(c1ccc(N(C)C)cc1)c1ccc(N(C)C)cc1	SF-268 CNS	inactive
NNC(=O)CCCCl	SF-268 CNS	inactive
C1=NCCc2ccccc21	SF-268 CNS	inactive
Cc1ccc(C)c(CCO)c1	SF-268 CNS	inactive
Cc1ccc(Cc2ccc(C)cc2)cc1	SF-268 CNS	inactive
CC(=O)N=c1ccc2nc3c(cc(N)c4ccccc43)oc-2c1	SF-268 CNS	active
OCC(O)COc1ccc(Cl)cc1Cl (stereo not drawn)	SF-268 CNS	inactive
COc1ccc(C)cc1NC(=O)SC(C)C	SF-268 CNS	inactive
Cc1ccc(NCN2C(=O)c3ccccc3C2=O)c(C)n1	SF-268 CNS	inactive
Oc1ccc(N=Cc2ccc(OCc3ccccc3)cc2)cc1	SF-268 CNS	inactive
CC(=O)NC(O)C(Cl)Cl (stereo not drawn)	SF-268 CNS	inactive
NS(=O)(=O)c1cc(=O)[nH]c(=O)[nH]1	SF-268 CNS	inactive
Nc1c(Br)cc(O)c2c1C(=O)c1ccccc1C2=O	SF-268 CNS	inactive
COc1ccc(C(=O)/C(=N/Nc2ccccc2)c2ccc(OC)cc2)cc1	SF-268 CNS	inactive
S=c1nc2[nH]c3ccccc3c2n[nH]1	SF-268 CNS	inactive
N#Cc1ccc2nc[nH]c2c1	SF-268 CNS	inactive
CCOC(OCC)C(=O)c1ccccc1	SF-268 CNS	inactive
CCNCC(C)(C)O	SF-268 CNS	inactive
CCCCc1ccc2nc(NC(=O)OC)[nH]c2c1	SF-268 CNS	inactive
O=Cc1ccc(F)cc1	SF-268 CNS	inactive

----------
Tested on: MDA-MB-231 breast
ASSAY_INFO: NCI-60 one-dose screen, 48 h (100 = growth as untreated, 0 = no growth, -100 = all killed)
PARTICULARS: 10 µM unless noted
Compounds without any hit were thinned out: in the full panel of roughly 83,000, 20% have a hit. Activity calls are given as the source filed them. Rule for the calls: active = growth percent below 10; inactive = the rest.

MOLECULE	TARGET	growth
OC(CBr)CCBr (stereo not drawn)	MDA-MB-231 breast	104% (inactive)
CCCCCCCCCc1ccc(OC(C)=O)cc1	MDA-MB-231 breast	110% (inactive)
N#C/C(=C\NC(=S)N=Nc1c(O)[nH]c2ccccc12)c1nc2ccccc2s1	MDA-MB-231 breast	87.9% (inactive)
Cc1ccc(O)c(N)c1	MDA-MB-231 breast	92.8% (inactive)
C/C(=N\O)c1ccccn1	MDA-MB-231 breast	101% (inactive)
O=C1C=C[C@H](O)[C@@]2(CO)O[C@@H]12	MDA-MB-231 breast	105% (inactive)
S=C(NCc1ccccc1)N1CCC(CCCC2CCN(C(=S)NCc3ccccc3)CC2)CC1	MDA-MB-231 breast	99.2% (inactive)
Cc1onc(-c2c(F)cccc2Cl)c1-c1ncc(-c2ccc(Br)cc2)o1	MDA-MB-231 breast	52.3% (inactive)
CCOc1ccc(C(=O)NCC(C)C)cc1	MDA-MB-231 breast	93.2% (inactive)
c1ccc(Nc2ccccn2)nc1	MDA-MB-231 breast	97.1% (inactive)
COC(=O)C1(CC(C)=O)NC(=S)NC(=O)C1C#N (stereo not drawn)	MDA-MB-231 breast	104% (inactive)
Cn1c(=O)c2[nH]c(CC(=O)O)nc2n(C)c1=O	MDA-MB-231 breast	100% (inactive)
c1ccc2[nH]c(Cc3nc4ccccc4[nH]3)nc2c1	MDA-MB-231 breast	106% (inactive)
